target.of.assay: anti-theophylline antibody
condition.summary: read-out: K2 (KD value for the competitor); simultaneous fit of gB and binding degree to equations 1 and 8, K1 variable
readout.name: Kd (pM)
Provide the reading as a plain figure in pM.

Ask: Please report the recorded Kd for "Cn1c(=O)c2[nH]cnc2n(C)c1=O" .
Reply: 2.5

---

target.of.assay: p60src kinase (Homo sapiens)
Sequence (P12931 whole entry): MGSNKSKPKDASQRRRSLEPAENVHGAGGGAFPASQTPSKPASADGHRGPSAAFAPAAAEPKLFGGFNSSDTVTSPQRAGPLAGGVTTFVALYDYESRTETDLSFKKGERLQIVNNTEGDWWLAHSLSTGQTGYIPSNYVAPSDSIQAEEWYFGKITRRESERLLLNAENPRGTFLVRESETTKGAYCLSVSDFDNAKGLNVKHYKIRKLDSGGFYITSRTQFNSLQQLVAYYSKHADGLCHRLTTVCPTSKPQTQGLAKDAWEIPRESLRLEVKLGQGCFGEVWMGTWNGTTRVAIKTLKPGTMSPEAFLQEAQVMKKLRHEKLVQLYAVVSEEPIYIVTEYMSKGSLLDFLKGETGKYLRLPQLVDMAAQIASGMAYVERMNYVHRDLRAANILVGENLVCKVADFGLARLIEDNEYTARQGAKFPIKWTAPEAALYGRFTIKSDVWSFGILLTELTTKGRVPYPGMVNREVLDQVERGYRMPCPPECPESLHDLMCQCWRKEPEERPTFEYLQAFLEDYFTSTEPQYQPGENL
readout.name: IC50

Ask: Please report the recorded IC50 for "Cc1cc(O)c2c(c1)C(=O)c1cc(O)cc(O)c1C2=O" .
Reply: 50 to 100 µM
